test system: Plasmodium falciparum; experiment: Ratio of IC50 for Plasmodium falciparum […] dehydrogenase C276A mutant to IC50 for Plasmodium falciparum wild type […] dehydrogenase
property_name: Ratio IC50
Note: the reply should be a number with no unit written.

structure_smiles | numeric_value
Cc1cc(Nc2ccc3ccccc3c2)n2ncnc2n1 | 0.69
Cc1cc(=O)n2nc(SCc3ccc(Cl)cc3)nc2[nH]1 | 1.5
Cc1cc(O)n2nc(SCc3cc(Cl)ccc3Cl)nc2n1 | 3.7

Lookup: Query (molecule): Cc1cc(O)n2nc(SCc3ccc(Cl)c(Cl)c3)nc2n1 ; field requested: Ratio IC50
Found: 2

* * *

Let's look at some compounds and their measured IC50.
Target chain: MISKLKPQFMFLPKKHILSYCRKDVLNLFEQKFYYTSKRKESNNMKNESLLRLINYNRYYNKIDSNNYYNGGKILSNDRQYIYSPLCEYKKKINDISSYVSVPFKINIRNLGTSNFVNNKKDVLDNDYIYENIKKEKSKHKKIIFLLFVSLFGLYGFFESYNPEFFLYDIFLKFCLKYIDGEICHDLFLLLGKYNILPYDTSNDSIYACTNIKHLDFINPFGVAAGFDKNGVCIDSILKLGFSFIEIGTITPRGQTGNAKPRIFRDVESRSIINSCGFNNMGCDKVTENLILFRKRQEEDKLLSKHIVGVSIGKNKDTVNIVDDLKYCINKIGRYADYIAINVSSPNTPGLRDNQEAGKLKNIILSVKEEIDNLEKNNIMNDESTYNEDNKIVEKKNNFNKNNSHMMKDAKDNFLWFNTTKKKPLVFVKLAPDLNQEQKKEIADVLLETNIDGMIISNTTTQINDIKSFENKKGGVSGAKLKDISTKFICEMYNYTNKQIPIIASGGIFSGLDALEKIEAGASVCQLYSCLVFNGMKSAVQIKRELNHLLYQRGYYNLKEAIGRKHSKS

structure_smiles | IC50
Cc1cc(=O)n2nc(SCc3ccc(Cl)cc3)nc2[nH]1 | 1 µM
Cc1cc(O)n2nc(SCc3cccc(Cl)c3)nc2n1 | 5.6 µM
Cc1cc(O)n2nc(SCc3cc(Cl)ccc3Cl)nc2n1 | 11 µM
Cc1cc(O)n2nc(SCc3ccc(Cl)c(Cl)c3)nc2n1 | 1.9 µM
Cc1cc(C)cc(CSc2nc3nc(C)cc(O)n3n2)c1 | 19 µM
Cc1cc(NCc2ccccc2)n2nc(SCc3ccccc3)nc2n1 | > 100 µM

Lookup: Would you kindly share the measured IC50 for Cc1cc(O)n2nc(SCc3ccccc3Cl)nc2n1 ?
Found: 28 µM

Lookup: Looking for the measured IC50 of CCc1cc(O)n2nc(SCc3cc(Cl)ccc3Cl)nc2n1 , can you help?
Found: > 100 µM

* * *

molecular target: Dihydroorotate dehydrogenase (quinone), mitochondrial (Homo sapiens, UniProt Q02127)
Sequence (Q02127 whole entry): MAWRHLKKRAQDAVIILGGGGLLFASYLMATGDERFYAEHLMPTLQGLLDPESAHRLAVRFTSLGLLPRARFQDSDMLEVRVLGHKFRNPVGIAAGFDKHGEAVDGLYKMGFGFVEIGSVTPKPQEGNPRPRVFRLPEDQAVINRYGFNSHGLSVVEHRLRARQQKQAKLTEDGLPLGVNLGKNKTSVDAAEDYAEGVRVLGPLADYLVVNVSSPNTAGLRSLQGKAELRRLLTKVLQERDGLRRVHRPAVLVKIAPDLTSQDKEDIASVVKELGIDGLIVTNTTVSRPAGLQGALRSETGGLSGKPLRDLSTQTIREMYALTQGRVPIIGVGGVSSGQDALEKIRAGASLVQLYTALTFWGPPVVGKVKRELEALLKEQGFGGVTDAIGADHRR
Field: label. Allowed values: true (1) (IC50 < 30 µM) or false (0) (IC50 >= 30 µM).

// below: answered compounds
structure_smiles | label
Cc1cc(O)n2nc(SCc3ccccc3)nc2n1 | false (0)
COc1ccc(CSc2nc3nc(C)cc(O)n3n2)cc1 | false (0)
Cc1ccc(CSc2nc3[nH]c(C)cc(=O)n3n2)cc1 | false (0)
Cc1cc(O)n2nc(SCc3ccccc3[N+](=O)[O-])nc2n1 | true (1)
CCc1cc(O)n2nc(SCc3cc(Cl)ccc3Cl)nc2n1 | true (1)
Cc1cc(O)n2nc(SCc3cc(Cl)ccc3Cl)nc2n1 | true (1)

Lookup: Problem: For the compound Cc1cc(O)n2nc(SCc3ccc(Cl)c(Cl)c3)nc2n1 , is IC50 under 30 µM?
Found: true (1)

Lookup: Is IC50 of Cc1cc(N)n2nc(SCc3ccc(Cl)c(Cl)c3)nc2n1 strictly below 30 µM?
Found: false (0)

Lookup: Answer whether the compound Cc1cc(=O)n2nc(SCc3ccc(Cl)cc3)nc2[nH]1 has IC50 strictly less than 30 µM
Found: false (0)

Lookup: Check if IC50 falls below 30 µM for Cc1cc(O)n2nc(SCc3ccc(Br)cc3)nc2n1 .
Found: false (0)

Lookup: Input Cc1cc(O)n2nc(SCc3cccc(Cl)c3)nc2n1 ; condition: IC50 strictly below 30 µM. Does it hold?
Found: true (1)

* * *

system: Dihydroorotate dehydrogenase (quinone), mitochondrial (Plasmodium falciparum (isolate 3D7)), Q08210 [H185A]; experiment: Inhibition of Plasmodium falciparum […] dehydrogenase H185A mutant expressed in Escherichia coli BL21(DE3) using […] as substrate at 100 uM by DCIP-based colorimetric analysis
Sequence (Q08210 whole entry H185A): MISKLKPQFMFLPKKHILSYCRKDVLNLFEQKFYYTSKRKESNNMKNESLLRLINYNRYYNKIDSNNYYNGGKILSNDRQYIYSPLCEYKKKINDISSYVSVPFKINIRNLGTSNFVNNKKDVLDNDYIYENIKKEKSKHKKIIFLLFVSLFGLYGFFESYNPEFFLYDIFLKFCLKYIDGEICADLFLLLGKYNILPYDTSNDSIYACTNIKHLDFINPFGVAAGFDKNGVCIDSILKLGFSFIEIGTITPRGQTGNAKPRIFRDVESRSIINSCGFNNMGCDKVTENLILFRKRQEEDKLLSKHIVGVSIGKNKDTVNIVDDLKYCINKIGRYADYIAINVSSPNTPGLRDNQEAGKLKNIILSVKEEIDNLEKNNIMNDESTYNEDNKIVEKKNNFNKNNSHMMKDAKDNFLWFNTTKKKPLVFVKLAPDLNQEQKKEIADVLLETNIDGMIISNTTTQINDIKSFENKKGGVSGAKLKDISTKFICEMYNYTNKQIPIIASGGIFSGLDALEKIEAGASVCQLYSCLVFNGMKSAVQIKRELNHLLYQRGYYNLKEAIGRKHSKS
Reported inhibition values for the following molecules.

structure_smiles | inhibition
Cc1cc(O)n2nc(SCc3ccc(Cl)c(Cl)c3)nc2n1 | < 50%
Cc1cc(=O)n2nc(SCc3ccc(Cl)cc3)nc2[nH]1 | < 50%
Cc1cc(O)n2nc(SCc3cc(Cl)ccc3Cl)nc2n1 | < 50%

Lookup: Give the measured inhibition of CCc1cc(O)n2nc(SCc3cc(Cl)ccc3Cl)nc2n1 .
Found: < 50%
